// data source = patent US20020028938A1

- Test System: Human Whole Platelet Cyclooxygenase-1 (Homo sapiens, UniProt P23219)
- Sequence (P23219 24-599): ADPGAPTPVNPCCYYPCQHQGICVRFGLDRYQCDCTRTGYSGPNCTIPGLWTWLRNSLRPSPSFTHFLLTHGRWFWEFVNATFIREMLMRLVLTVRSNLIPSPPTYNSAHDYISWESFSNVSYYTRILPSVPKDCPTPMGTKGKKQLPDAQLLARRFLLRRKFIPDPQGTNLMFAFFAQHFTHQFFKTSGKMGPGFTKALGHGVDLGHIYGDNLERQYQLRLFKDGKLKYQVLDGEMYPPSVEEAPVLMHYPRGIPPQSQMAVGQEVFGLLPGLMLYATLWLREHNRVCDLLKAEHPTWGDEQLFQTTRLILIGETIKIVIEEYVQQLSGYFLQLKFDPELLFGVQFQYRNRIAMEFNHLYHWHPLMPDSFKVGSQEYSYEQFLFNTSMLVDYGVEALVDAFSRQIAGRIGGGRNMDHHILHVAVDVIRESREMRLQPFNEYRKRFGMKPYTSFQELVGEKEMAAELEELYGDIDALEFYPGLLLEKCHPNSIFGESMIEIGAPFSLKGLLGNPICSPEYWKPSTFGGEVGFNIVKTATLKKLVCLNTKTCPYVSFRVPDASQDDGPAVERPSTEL
- Protocol Notes: Human Whole Platelet Cyclooxygenase-1 assay (HWPX)
- Recorded Conditions: read-out: HWPX IC50 (parenthetical value)
Measured Metric: IC50 (µM)
// units = µM; emit number, no label

Example entries begin here.
* CS(=O)(=O)c1ccc(-c2cnn(Cc3ccccc3)c(=O)c2-c2ccc(F)cc2)cc1 | 4.1
* CC(C)(C)COc1c(-c2ccc(S(C)(=O)=O)cc2)cnn(-c2cccc(Cl)c2)c1=O | 14.9

Report measured IC50; entry is Cc1cc(-c2c(-c3ccc(S(C)(=O)=O)cc3)cnn(-c3cccc(Cl)c3)c2=O)ccc1F
3.67

Indicate its recorded IC50; the compound in question is CC(C)=CCCOc1c(-c2ccc(S(C)(=O)=O)cc2)cnn(-c2ccc(F)c(F)c2)c1=O
5.5

Kindly indicate its recorded IC50. Item: CC(C)(C)COc1c(-c2ccc(S(C)(=O)=O)cc2)cnn(CC(F)(F)F)c1=O
34

Give reported IC50 value for CC(C)CCc1c(-c2ccc(S(N)(=O)=O)cc2)cnn(-c2ccc(F)cc2)c1=O
12.7

Identify the reported IC50 for the following entry. CS(=O)(=O)c1ccc(-c2cnn(-c3cccc(Br)c3)c(=O)c2-c2ccc(F)cc2)cc1
9.4

Give reported IC50 value for CC(=O)NS(=O)(=O)c1ccc(-c2cnn(CC(F)(F)F)c(=O)c2OCC(C)(C)CO)cc1
3.5

###

Known inhibition in vivo at 3 mg/kg of a selection of molecules
- System: air pouch prostaglandin biosynthesis (Cox-2)
- Protocol Notes: Carrageenan induced air pouch prostaglandin biosynthesis model (CAP)
- Format: in vivo, rat
- Recorded Conditions: 4 h; 3 mpk, rat; read-out: CAP % Inhib. @ 3 mpk
Expressed in %, but write only the number.

Sample records with inhibition in vivo at 3 mg/kg:
- CC(C)COc1c(-c2ccc(S(N)(=O)=O)cc2)cnn(CC(F)(F)F)c1=O: 76
- NS(=O)(=O)c1ccc(-c2cnn(-c3ccc(F)cc3)c(=O)c2-c2ccc(F)cc2)cc1: 94
- CC(C)COc1c(-c2ccc(S(N)(=O)=O)cc2)cnn(-c2cccc(Cl)c2)c1=O: 71

State its inhibition in vivo at 3 mg/kg for this molecule: CC(C)CCOc1c(-c2ccc(S(N)(=O)=O)cc2)cnn(-c2cccc(Cl)c2)c1=O
70

Give the value of inhibition in vivo at 3 mg/kg reported for the following: CS(=O)(=O)c1ccc(-c2cnn(-c3ccc(F)c(Cl)c3)c(=O)c2C2CCCCC2)cc1
48

Provide only the value of recorded inhibition in vivo at 3 mg/kg for CS(=O)(=O)c1ccc(-c2cnn(-c3ccc(F)c(Cl)c3)c(=O)c2Cc2ccccc2)cc1
49

Provide one value: measured inhibition in vivo at 3 mg/kg of CC(C)CCOc1c(-c2ccc(S(C)(=O)=O)cc2)cnn(-c2ccc(F)cc2)c1=O
77.5

Consider the molecule NS(=O)(=O)c1ccc(-c2cnn(CC(F)(F)F)c(=O)c2-c2ccc(Cl)cc2)cc1 . State its measured inhibition in vivo at 3 mg/kg.
87

State its inhibition in vivo at 3 mg/kg for this molecule: NS(=O)(=O)c1ccc(-c2cnn(Cc3ccccc3)c(=O)c2-c2ccc(F)cc2)cc1
51

Look up inhibition in vivo at 3 mg/kg of CC(C)CCc1c(-c2ccc(S(C)(=O)=O)cc2)cnn(-c2ccc(F)c(F)c2)c1=O and report it.
47

Please give the documented inhibition in vivo at 3 mg/kg of CS(=O)(=O)c1ccc(-c2cnn(-c3ccc(F)c(F)c3)c(=O)c2-c2ccc(Cl)cc2)cc1
47

Return inhibition in vivo at 3 mg/kg for the following molecule: CC(C)COc1c(-c2ccc(S(N)(=O)=O)cc2)cnn(-c2ccc(F)cc2)c1=O
70

Identify the reported inhibition in vivo at 3 mg/kg for the following entry. CS(=O)(=O)c1ccc(-c2cnn(-c3cccc(Cl)c3)c(=O)c2Cc2ccccc2)cc1
48

Determine its reported inhibition in vivo at 3 mg/kg: CC(C)COc1c(-c2ccc(S(C)(=O)=O)cc2)cnn(-c2ccc(F)cc2)c1=O
77.5

Fill in reported inhibition in vivo at 3 mg/kg for this entry: CC(C)CCOc1c(-c2ccc(S(C)(=O)=O)cc2)cnn(C(C)(C)C)c1=O
4.5

Quickly give me recorded inhibition in vivo at 3 mg/kg for NS(=O)(=O)c1ccc(-c2cnn(Cc3ccc(F)c(F)c3F)c(=O)c2-c2ccc(F)cc2)cc1
51

###

- Test System: recombinant human Cox-2 (r-hu Cox-2) (Homo sapiens, UniProt P35354)
- Protocol Notes: Recombinant human PGHS-2 enzyme assay (RHUCX2)
- Recorded Conditions: read-out: RHUCX2 IC50 (parenthetical value)
pIC50: −log10 of the molar value.
Label scheme for pIC50: lower than 7 is -1, 7 and above is 1.

These solved cases illustrate the format of a correct answer.
- CC(C)(O)CCOc1c(-c2ccc(S(C)(=O)=O)cc2)cnn(-c2cccc(Cl)c2)c1=O: -1
- CC(C)CCc1c(-c2ccc(S(C)(=O)=O)cc2)cnn(-c2cccc(Cl)c2)c1=O: 1
- CC(C)(C)COc1c(-c2ccc(S(N)(=O)=O)cc2)cnn(CC(F)(F)F)c1=O: -1
- CSc1cccc(-n2ncc(-c3ccc(S(C)(=O)=O)cc3)c(-c3ccc(F)cc3)c2=O)c1: -1
- NS(=O)(=O)c1ccc(-c2cnn(CC=C(Cl)Cl)c(=O)c2-c2ccc(F)cc2)cc1: 1
- CC(C)(C)COc1c(-c2ccc(S(N)(=O)=O)c(F)c2)cnn(CC(F)(F)F)c1=O: -1
- CC(C)=CCCOc1c(-c2ccc(S(C)(=O)=O)cc2)cnn(-c2cccc(Cl)c2)c1=O: 1
- CC(C)(O)CCOc1c(-c2ccc(S(C)(=O)=O)cc2)cnn(-c2ccc(F)c(F)c2)c1=O: -1
- CC(C)CCOc1c(-c2ccc(S(C)(=O)=O)cc2)cnn(-c2ccc(F)cc2)c1=O: -1

# ---- query compound ----
API: above_or_equal(metric=pIC50, cutoff=7) for item NS(=O)(=O)c1ccc(-c2cnn(-c3ccc(F)c(F)c3)c(=O)c2Oc2ccc(F)cc2)cc1
1

###

- Test System: recombinant human Cox-1 (r-hu Cox1) (Homo sapiens, UniProt P23219)
- Construct: made in house; host or cells: baculovirus/Sf9 insect cells (microsomes)
- Protocol Notes: Recombinant human PGHS-1 enzyme assay (RHUCX1)
- Format: biochemical
- Recorded Conditions: 100 μM; read-out: RHUCX1 % Inh. at Dose
Quick reference: inhibition at 100 µM of the listed items.

- Cc1ccc(-c2c(-c3ccc(S(C)(=O)=O)cc3)cnn(-c3ccc(F)c(F)c3)c2=O)cc1F: 8%

Give a short answer stating reported inhibition at 100 µM for CC(C)CCOc1c(-c2ccc(S(C)(=O)=O)cc2)cnn(C(C)(C)C)c1=O .
15%

Provide inhibition at 100 µM value for the following compound: CS(=O)(=O)c1ccc(-c2cnn(-c3ccc(F)c(Cl)c3)c(=O)c2Cc2cccc(F)c2)cc1
6%

Provide one value: measured inhibition at 100 µM of CC(C)(C)COc1c(-c2ccc(S(C)(=O)=O)cc2)cnn(-c2ccc(F)c(F)c2)c1=O
0%

For the compound CS(=O)(=O)c1ccc(-c2cnn(-c3ccc(F)cc3)c(=O)c2N2CCCCC2)cc1 , give its reported inhibition at 100 µM.
0%

Provide measured inhibition at 100 µM value, entry: CC(C)COc1c(-c2ccc(S(C)(=O)=O)cc2)cnn(-c2ccc(F)c(F)c2)c1=O
14%

Return value of inhibition at 100 µM for input Cc1cc(-c2c(-c3ccc(S(C)(=O)=O)cc3)cnn(-c3ccc(F)cc3)c2=O)ccc1F , no commentary.
9%

Please give the documented inhibition at 100 µM of CC(C)COc1c(-c2ccc(S(C)(=O)=O)cc2)cnn(-c2cccc(Cl)c2)c1=O
5%

###

- Test System: human amnionic whole cell cyclooxygenase-2 (WISH cells) (Homo sapiens, UniProt P35354)
- Construct: endogenous in cells
- Sequence (P35354 18-604): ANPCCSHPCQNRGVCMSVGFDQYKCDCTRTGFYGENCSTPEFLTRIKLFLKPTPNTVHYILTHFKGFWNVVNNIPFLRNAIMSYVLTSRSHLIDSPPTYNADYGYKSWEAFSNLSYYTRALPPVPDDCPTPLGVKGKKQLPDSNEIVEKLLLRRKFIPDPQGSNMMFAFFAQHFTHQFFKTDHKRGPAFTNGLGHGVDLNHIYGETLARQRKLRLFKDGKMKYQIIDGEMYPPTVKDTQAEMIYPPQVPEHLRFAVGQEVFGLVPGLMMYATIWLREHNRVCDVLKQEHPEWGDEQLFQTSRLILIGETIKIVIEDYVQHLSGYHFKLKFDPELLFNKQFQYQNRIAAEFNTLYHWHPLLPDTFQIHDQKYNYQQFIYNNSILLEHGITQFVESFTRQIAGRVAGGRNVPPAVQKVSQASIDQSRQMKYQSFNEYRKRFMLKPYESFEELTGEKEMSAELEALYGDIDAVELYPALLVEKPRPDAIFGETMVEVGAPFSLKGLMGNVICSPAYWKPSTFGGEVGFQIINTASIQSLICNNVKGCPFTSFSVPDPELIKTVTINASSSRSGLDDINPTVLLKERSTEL
- Protocol Notes: IL-1β induced PGE2 production in WISH cells
- Recorded Conditions: read-out: Wish IC50 (parenthetical value)
Measured Metric: IC50 (µM)
Reply with just the number (in µM).

Before answering, review these 7 worked examples.
- C=C(F)C(F)(F)n1ncc(-c2ccc(S(N)(=O)=O)cc2)c(-c2ccc(F)cc2)c1=O: 0.088
- C=Cc1cccc(-n2ncc(-c3ccc(S(C)(=O)=O)cc3)c(-c3ccc(F)cc3)c2=O)c1: 0.034
- Cc1cc(-c2c(-c3ccc(S(C)(=O)=O)cc3)cnn(-c3ccc(F)c(Cl)c3)c2=O)ccc1F: 0.02
- NS(=O)(=O)c1ccc(-c2cnn(CC=C(F)F)c(=O)c2-c2ccc(F)cc2)cc1F: 0.029
- CS(=O)(=O)c1ccc(-c2cnn(-c3ccc(F)c(Cl)c3)c(=O)c2-c2ccc(F)cc2)cc1: 0.015
- NS(=O)(=O)c1ccc(-c2cnn(CC(F)(F)F)c(=O)c2-c2ccc(Cl)cc2)cc1: 0.02
- CS(=O)(=O)c1ccc(-c2cnn(-c3ccc(F)c(Cl)c3)c(=O)c2Cc2ccccc2)cc1: 0.005

Please turn your attention to the following entry.
Fetch value of IC50 on human amnionic whole cell cyclooxygenase-2 (WISH cells) (Homo sapiens, UniProt P35354) for CS(=O)(=O)c1ccc(-c2cnn(-c3ccc(F)c(F)c3)c(=O)c2-c2ccc(Cl)cc2)cc1 .
0.03
